System: HSALR mice
Experiment: Serum biochemistry profile
Type: in vivo, mouse
Conditions: mouse, in vivo, iv, 9.2 mg/kg
Description: Mouse handling and experimental procedures followed the European law regarding laboratory animal care and experimentation (2003/65/C.E.) and were approved by Conselleria de Agricultura, […] (reference no. A1539961490857). We used homozygous transgenic HSA^LR (line 20 b) mice,[90] which were kindly provided by Dr Thornton (Rochester, NY) and were housed and bred in our animal facility. […]
Observable: Alkaline Phosphatase

Some substances with recorded Alkaline Phosphatase:
9b2KC-218 (antisense ACAUGGUUAGAUCAAGCACAA; all phosphorodiamidate morpholino (PMO), T or U not given here; Pip9b2KC peptide conjugated); 59,8 ± 6,300 U/L
9b2-23b (antisense GGUAAUCCCUGGCAAUGUGAU; all phosphorodiamidate morpholino (PMO), T or U not given here; Pip9b2 peptide conjugated); 61 ± 4,301 U/L
6aKC-218 (antisense ACAUGGUUAGAUCAAGCACAA; all phosphorodiamidate morpholino (PMO), T or U not given here; Pip6aKC peptide conjugated); 58 ± 4,123 U/L

Query: Form field: reported Alkaline Phosphatase of 9b2KC-23b (antisense GGUAAUCCCUGGCAAUGUGAU; all phosphorodiamidate morpholino (PMO), T or U not given here; Pip9b2KC peptide conjugated)
Response: 58,8 ± 5,718 U/L

Query: Look up Alkaline Phosphatase: 6aKC-23b (antisense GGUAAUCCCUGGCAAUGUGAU; all phosphorodiamidate morpholino (PMO), T or U not given here; Pip6aKC peptide conjugated)
Response: 58,40 ± 6,693 U/L

Query: Fill blank: measured Alkaline Phosphatase of the substance 9b2-218 (antisense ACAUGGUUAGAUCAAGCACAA; all phosphorodiamidate morpholino (PMO), T or U not given here; Pip9b2 peptide conjugated) is ____.
Response: 61,40 ± 6,730 U/L
